# Test system: PA-1
# protocol: Primary qHTS to identify gynecologic anti-cancer compounds using libraries of approved drugs and bioactive compounds (AID 1345084); further: nearly all actives have a fitted effect of over 55% in size
# measurementParameters: Gynecologic cancer cell panel viability, ATPlite luminescence, 48 h; series mostly up to 57.5 µM
Records with an inconclusive call do not appear. Active and inactive are the calls of the source. The call rests on the fitted dose curve; in most records, active means well fitted cell-killing curve with a large enough effect; inconclusive means small, poorly fitted or top-dose-only effect, or effect the other way; inactive means flat fitted curve, though single readings scatter.
Outcome codes: active, inactive

> print(dat)
                                   compound  classassignment
1  O=C(NCC(O)CO)c1ccncc1Nc1ccc(I)cc1F (centres undefined)         inactive
2  CS(=O)(=O)c1ccc(-c2nnc(/C=C/c3nnc(-c4ccc(C#N)cc4)o3)n2-c2ccccc2Cl)nc1         inactive
3  OC[C@H]1O[C@@H](OC[C@H]2O[C@@H](OC/C=C/c3ccccc3)[C@H](O)[C@@H](O)[C@@H]2O)[C@@H](O)[C@@H]1O         inactive
4  CN(C)c1nc(NC2CCC(NC(=O)c3ccc(F)c(F)c3)CC2)nc2ccccc12 (centres undefined)           active
5  CCOC(=O)Nc1cc(-c2ccc(C)c(NS(C)(=O)=O)c2)nn2c(C)nnc12           active
6  CC1(O)CCCC2(C)C1CCC13CC(CO)C(CCC12)C3 (centres undefined)         inactive
7  C/C=C/C(O)C1OC(=O)CC1Nc1ccc(C(=O)O)cc1 (centres undefined)         inactive
8  C[C@@H]1C[C@@H](O)[C@@]23CO[C@@H](O)[C@@H]2CCC[C@@H]3[C@@]12C[C@@H](c1ccoc1)OC2=O         inactive
9  CCC(O)C(C)C1CCC(C(C)C(=O)O)O1 (centres undefined)         inactive

---

# System: JEG-3
# protocol: Primary qHTS to identify gynecologic anti-cancer compounds using libraries of approved drugs and bioactive compounds (AID 1345084); further: nearly all actives have a fitted effect of over 55% in size; on activity change, negative = cytotoxicity: on the % scale 0 is the no-effect control and ±100 the full control effect
# measurementParameters: Gynecologic cancer cell panel viability, ATPlite luminescence, 48 h; series mostly up to 57.5 µM
Inconclusive results are not listed. Active and inactive are the calls of the source. The call rests on the fitted dose curve; in most records, active means well fitted cell-killing curve with a large enough effect; inconclusive means small, poorly fitted or top-dose-only effect, or effect the other way; inactive means flat fitted curve, though single readings scatter.

compound	activity change, negative = cytotoxicity
COc1ccc(C(O)C(C)OC2OC(CO)C(O)C(O)C2O)cc1 (centres undefined)	inactive
CC1(C)CC[C@]2(C(=O)O[C@@H]3O[C@H](CO)[C@@H](O)[C@H](O)[C@H]3O)CC[C@]3(C)C(=CCC4[C@@]5(C)CC[C@H](O[C@@H]6O[C@H](C(=O)O)[C@@H](O)[C@H](O)[C@H]6O)[C@@](C)(CO)C5CC[C@]43C)C2C1 (some centres undefined)	-2.45% [at 11.6 µM] (inactive)
CC(C)C(N)C(=O)OCCOCn1cnc2c(=O)[nH]c(N)nc21 (centres undefined)	inactive
C=C[C@H]1[C@H](O[C@@H]2O[C@H](CO)[C@@H](O)[C@H](O)[C@H]2O)OC=C(C(=O)OC)[C@H]1C/C=C(/C=O)[C@@H]1C(C(=O)OC)=CO[C@@H](O[C@@H]2O[C@H](CO)[C@@H](O)[C@H](O)[C@H]2O)[C@@H]1C=C	inactive

---

# System: Tov-21-G
# protocol: Primary qHTS to identify gynecologic anti-cancer compounds using libraries of approved drugs and bioactive compounds (AID 1345084); further: nearly all actives have a fitted effect of over 55% in size
# measurementParameters: Gynecologic cancer cell panel viability, ATPlite luminescence, 48 h; series mostly up to 57.5 µM
Records with an inconclusive call do not appear. Calls of active or inactive are those of the source. Calls follow the shape of the dose curve; as a rule, active = well fitted cell-killing curve with a large enough effect; inconclusive = small, poorly fitted or top-dose-only effect, or effect the other way; inactive = flat fitted curve, though single readings scatter.
Outcome codes: true = active, false = inactive

compound	classAssignment
COc1ccc(CCO[C@@H]2CCCC[C@H]2N2CC[C@@H](O)C2)cc1OC	false
CC(=O)O[C@@H]1[C@@H](O)[C@H](O[C@H]2CC[C@]34C[C@]35CC[C@]3(C)[C@@H]([C@@]6(C)CC[C@@H](C(C)(C)O)O6)[C@@H](O)C[C@@]3(C)[C@@H]5C[C@H](O[C@@H]3O[C@H](CO)[C@@H](O)[C@H](O)[C@H]3O)[C@H]4C2(C)C)OC[C@H]1O	false
OC/C=C/C=C/[C@H]1Cc2cc(O)cc(O)c2O1	false
C=C[C@]1(C)C=C2CCC3C(C)(CCC[C@@]3(C)C(=O)O)C2CC1 (stereo partly specified)	false
CCOc1cc(CC(=O)NC(CC(C)C)c2ccccc2N2CCCCC2)ccc1C(=O)O (stereo unspecified)	false
CC1(C)CCC[C@]2(C)[C@H]3CC(=O)O[C@]3(C)CC[C@@H]12	false
C=CC(C)(C)c1[nH]c2cc3c(cc2c1CC1NC(=O)C2CCCN2C1=O)C=CC(C)(C)O3 (stereo unspecified)	false
CC1=CC(=O)CC(C)(C)C1/C=C/C(C)O[C@@H]1O[C@H](CO)[C@@H](O)[C@H](O)[C@H]1O[C@@H]1OC[C@](O)(CO)[C@H]1O (stereo partly specified)	false
CC(C)c1cc2c(c(O)c1O)[C@@]13CCCC(C)(C)[C@@H]1[C@H](OC3=O)C2=O	false
COc1cccc2cc3c(c(O[C@@H]4O[C@H](CO[C@@H]5O[C@H](CO)[C@@H](O)[C@H](O)[C@H]5O)[C@@H](O)[C@H](O)[C@H]4O)c12)C(C)OC3=O (stereo partly specified)	false
CC1(C)CCCC2(C)C1CC=C1C(=O)OC(O)C12O (stereo unspecified)	false
COc1ccc(C2COc3cc(O)ccc3C2)c(O)c1 (stereo unspecified)	false
O=C(O)c1ccc(OC2OC(CO)C(O)C(O)C2O)cc1 (stereo unspecified)	false
CCOC(=O)c1sc(NC(=O)[C@H](C(C)C)n2c(=O)[nH]c3ccccc3c2=O)nc1C	false
CC1OC(OC2CCC3(C)C(CCC4(C)C3CC=C3C5CC(C)(C)CCC5(C(=O)OC5OC(CO)C(O)C(O)C5O)CCC34C(=O)O)C2(C)C)C(O)C(O)C1O (stereo unspecified)	false
CC1=C(CO)C(=O)O[C@@H]([C@@H](C)[C@H]2CC[C@H]3[C@@H]4C[C@H]5O[C@]56[C@@H](O)C=CC(=O)[C@]6(C)[C@H]4CC[C@]23C)C1	true
